Measured values drawn from ChEMBL document CHEMBL1165965 for this set.

- testSystem: Tyrosine-protein kinase JAK1 (Homo sapiens) (UniProt P23458)
- Sequence (P23458 whole entry, the tested form may be a part): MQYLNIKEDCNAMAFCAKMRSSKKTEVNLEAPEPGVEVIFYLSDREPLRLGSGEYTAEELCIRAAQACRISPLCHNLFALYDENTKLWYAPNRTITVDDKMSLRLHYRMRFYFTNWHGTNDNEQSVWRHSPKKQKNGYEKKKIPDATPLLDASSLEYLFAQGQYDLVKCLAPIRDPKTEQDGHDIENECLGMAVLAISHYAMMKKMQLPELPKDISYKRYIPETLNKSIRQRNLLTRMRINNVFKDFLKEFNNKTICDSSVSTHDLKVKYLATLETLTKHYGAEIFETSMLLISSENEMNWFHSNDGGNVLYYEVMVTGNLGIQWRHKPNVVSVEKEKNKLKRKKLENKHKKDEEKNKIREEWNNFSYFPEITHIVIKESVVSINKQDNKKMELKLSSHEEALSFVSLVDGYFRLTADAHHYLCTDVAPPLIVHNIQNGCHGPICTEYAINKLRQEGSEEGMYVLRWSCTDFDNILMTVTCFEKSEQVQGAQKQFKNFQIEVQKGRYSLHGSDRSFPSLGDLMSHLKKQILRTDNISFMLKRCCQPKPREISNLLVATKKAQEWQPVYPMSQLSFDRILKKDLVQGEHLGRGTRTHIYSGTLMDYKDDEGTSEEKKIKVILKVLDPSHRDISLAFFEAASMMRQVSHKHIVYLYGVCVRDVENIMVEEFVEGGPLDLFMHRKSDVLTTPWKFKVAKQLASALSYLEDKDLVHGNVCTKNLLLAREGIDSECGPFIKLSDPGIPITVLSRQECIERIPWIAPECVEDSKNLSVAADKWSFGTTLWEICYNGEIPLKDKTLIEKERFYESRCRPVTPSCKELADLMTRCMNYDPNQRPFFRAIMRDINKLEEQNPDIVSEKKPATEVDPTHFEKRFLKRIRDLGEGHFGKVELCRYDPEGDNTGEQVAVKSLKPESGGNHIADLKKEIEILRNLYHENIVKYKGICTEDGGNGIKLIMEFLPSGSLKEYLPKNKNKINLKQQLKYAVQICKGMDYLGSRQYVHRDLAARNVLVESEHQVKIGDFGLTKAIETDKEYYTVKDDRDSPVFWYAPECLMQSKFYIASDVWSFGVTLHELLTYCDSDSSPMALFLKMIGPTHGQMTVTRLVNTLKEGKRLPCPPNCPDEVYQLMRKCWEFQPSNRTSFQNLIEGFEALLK
- assayMethodText: Inhibition of JAK1 JH1 catalytic domain at 1 uM
# key: entry, value: inhibition
Could you give me the number in %? Just the number is fine.

chemicalStructure: CN1CCN(c2ccc(-c3cnc4c(c3)N(Cc3cc(F)ccc3F)CCN4)cn2)CC1
inhibition / %: 88

Turning now to a further compound:
# input Any idea what inhibition was measured for CC(=O)N1CCN(c2cc(-c3cnc4c(c3)N(Cc3cc(Cl)ccc3C(F)(F)F)CCN4)ccn2)CC1 ?
# output 96

---

- testSystem: Mitogen-activated protein kinase kinase kinase 10 (Homo sapiens)
- assayMethodText: Inhibition of MLK2 at 1 uM
# key: entry, value: inhibition

The examples below pair each entry with its known result.
chemicalStructure: CC(=O)N1CCN(c2cc(-c3cnc4c(c3)N(Cc3cc(Cl)ccc3C(F)(F)F)CCN4)ccn2)CC1
inhibition: < 50%
//
chemicalStructure: CN1CCN(c2ccc(-c3cnc4c(c3)N(Cc3cc(F)ccc3F)CCN4)cn2)CC1
inhibition: < 50%
//
chemicalStructure: COC1CCN(C(=O)c2ccc(-c3cnc4c(c3)N(Cc3cc(Cl)ccc3C(F)(F)F)CCN4)cc2)CC1
inhibition: < 50%

# input Any idea what inhibition was measured for CN1CCN(c2ccc(-c3cnc4c(c3)N(Cc3cc(Cl)ccc3Cl)CCN4)cn2)CC1 ?
# output < 50%

# input Any idea what inhibition was measured for CN1CCN(c2ccc(-c3cnc4c(c3)N(Cc3cc(Cl)ccc3C(F)(F)F)CCN4)cn2)CC1 ?
# output < 50%

# input Any idea what inhibition was measured for O=C(c1ccc(-c2cnc3c(c2)N(Cc2cc(Cl)ccc2C(F)(F)F)CCN3)cc1)N1CCCCC1 ?
# output < 50%
